Ref: patent US20250092406

- measured target: SARS-CoV-2 spike glycoprotein subunit 1 (S1) (SARS-CoV-2)
- test details: BLI
- stated conditions: SEQ 37 part DNA primer, selected region TNA 3'-2', natural bases
experimental readout: Kd (µM)
Please reply with the bare figure in µM and do not write the unit itself.

Known value: SARS-CoV-2 spike glycoprotein subunit 1 (S1) (SARS-CoV-2) Kd of the sequence GTCCCCTTGGGGATACCACCCGTGCACGATCTAGCCAGTGCTCGCTTGAAATGGGCGCAG [S1 Standard-2] equals 0.034

###

- measured target: TNF-alpha (UniProt P01375)
- Sequence (P01375 77-233): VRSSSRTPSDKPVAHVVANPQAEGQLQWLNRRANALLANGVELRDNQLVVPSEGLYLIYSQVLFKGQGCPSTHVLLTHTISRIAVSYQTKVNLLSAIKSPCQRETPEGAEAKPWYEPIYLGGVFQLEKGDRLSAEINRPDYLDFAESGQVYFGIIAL
- test details: BLI
- stated conditions: SEQ 37 part DNA primer, selected region TNA 3'-2', all T = C5-benzyl carboxamide U (UPhe); 24 C, 2 mM CaCl2
experimental readout: pKd
Kindly note that pKd refers to -log10 of the concentration in mol/L and answer with the value alone.

pKd recorded for this sequence, GTCCCCTTGGGGATACCACCAGAGCAAGTCATGATCGCGAGTTTAGCTTTTTCATTTCCC [TNF Phe entry 9] , is 7.07

In plain terms, GTCCCCTTGGGGATACCACCCTTAGGTCGGCCTTTGACCATTCGTGCAAAACTTAGCGAA [TNF Phe entry 6] has a documented pKd of 7.39

GTCCCCTTGGGGATACCACCTGACACCTGGCACGAATGCGCAGACGACGTTGTTTTGCGT [TNF Phe entry 4] has a reported pKd of 7.72

Record GTCCCCTTGGGGATACCACCTTAATTTTGAGATCTTTGTCGAGTTGCTCGGTGAAAAGTC [TNF Phe entry 8] . Reported pKd: 7.15

The reported pKd of the sequence GTCCCCTTGGGGATACCACCACTTTTGCTTGAGATTCGGCGCATTTCGTGCAGTGATGTA [TNF Phe entry 5] was 7.57

// GTCCCCTTGGGGATACCACCGAATGCGCTTGAGCGCGCCCGATGATATAGCGAACCAAGC [TNF Phe entry 7] : pKd value = 7.27
